assay: differential killing of epithelial or mesenchymal cells, primary screen, imaging, PC-3E GFP, TEM4-18 mCherry, co-culture (AID 1345086); conditions: imaging cell counts, measured here: epithelial PC-3E GFP cell survival, at 1 µM;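 further: cells exposed to compound for 72 h before imaging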
Experimental Readout: normalised cell number
// print number alone

Prompt: Data request, read-out normalised cell number, for Cc1coc2c1C(=O)C(=O)c1c-2ccc2c1CCCC2(C)C
Completion: 0.67

Prompt: // query: COC1=C(O)C(=O)c2c(cc3oc(C(C)=O)c(O)c3c2O)C1=O
Completion: 0.94

Prompt: // query: CC(=O)O[C@H]1C[C@@H](OC(C)=O)C(C)(C)C2C[C@@H](O)[C@]3(C)C(CC[C@@]4(C)[C@H](c5ccoc5)OC(=O)[C@H]5O[C@]543)[C@]21C (stereo not given in full)
Completion: 0.87

Prompt: // query: FC(F)(Cl)C(F)(F)Cl
Completion: 0.91

Prompt: // query: C[C@]12CCC3c4ccc(OS(=O)(=O)O)cc4CCC3C1CCC2=O (stereo not given in full)
Completion: 0.94

Prompt: // query: OC[C@H]1O[C@H](OCCCc2ccc(O)cc2)[C@H](O)[C@@H](O)[C@@H]1O
Completion: 0.9

Prompt: // query: CC(C)CCCC(C)[C@H]1CCC2C3C(=O)C=C4C[C@@H](O)CC[C@]4(C)C3CC[C@@]21C (stereo not given in full)
Completion: 0.98

Prompt: // query: O=C(O)c1ccccc1Nc1cccc(OCc2ccc3ccccc3n2)c1
Completion: 1.35

Prompt: // query: CC(=O)OCC(=O)[C@@]1(O)CCC2C3CCC4=CC(=O)C=C[C@]4(C)[C@@]3(F)[C@@H](O)C[C@@]21C (stereo not given in full)
Completion: 1.27

Prompt: // query: COC1C(O)C(O)C(O)[C@@H](O)C1O (stereo not given in full)
Completion: 0.95

====

test: antimalarial activity against Dd2 strain (AID 2302);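 further: 0% = DMSO untreated growth and 100% = chloroquine plus artemisinin killed control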; conditions: P. falciparum Dd2 in RBCs, LDH growth readout, 72 h; at 2 µM
The source made the active and inactive calls.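 The calls were made as follows: active = growth inhibition above 50% at the single 2 µM test dose, taken to imply half-maximal potency below 2 µM; inactive = the rest.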
Log the outcome using a class from 1 (active), -1 (inactive)

Prompt: Which result was noted for this compound in the test: Cc1[nH]c(C)c(-c2ccc(Oc3ccc(Cl)c(Cl)c3)cc2)c(=O)c1Cl
Completion: 1

Prompt: // query: CN=C(N)c1ccc(NC(=O)C=Cc2ccc(C(=O)Nc3ccc(C(N)=NC)cc3)cc2)cc1
Completion: 1

Prompt: // query: CCCCc1nc2nc(N)nc(N)c2cc1CCC
Completion: -1

Prompt: // query: CC(C)Sc1nc2c(c(=O)n1Cc1ccco1)C1(CCCCC1)Cc1ccccc1-2
Completion: 1

Prompt: // query: COc1ccc(Nc2ncc(Cl)c(Nc3cccnc3C(N)=O)n2)cc1N1CCN(C)CC1
Completion: 1

====

Could you please report measured inhibition for the items listed next?
assay: human astrocyte viability loss, single and combined drugs, cytotoxicity control for chromothriptic childhood tumor combination screen, cell-based, BGB or cisplatin IC20 combos (AID 1671460); settings: Human astrocytes, drug combinations, at 0.5 µM, stronger effect = higher value;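 further: cells exposed to compounds for 96 hours before viability readout; 0% = vehicle and 100% = killing control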
Provide only the numeric value, understood in %.

Prompt: Data request, read-out inhibition, for O=c1cc(-c2cccc3c2Sc2ccccc2S3)oc(N2CCOCC2)c1
Completion: -40.3

Prompt: // query: O=c1[nH]c(-c2ccc(C(F)(F)F)cc2)nc2c1CSCC2
Completion: -1.27

Prompt: // query: O=C(Nc1ccccc1)c1ccccc1O
Completion: 6.87
